# credit: patent US20210380703A1

assay.system: T1, human ACVR2A (human, UniProt P27037 20-135, limits assumed); note: test concentration or dose not given here
T1 construct: also called activin receptor, type II A
T1 sequence (P27037 20-135 limits assumed): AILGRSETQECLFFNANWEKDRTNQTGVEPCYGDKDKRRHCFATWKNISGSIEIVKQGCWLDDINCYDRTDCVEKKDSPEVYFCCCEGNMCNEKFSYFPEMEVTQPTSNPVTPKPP
method.notes: ELISA
Please go through the items and note down their optical density.
Numbers only, in OD.

365_F02 (antibody, V domains shown, Group III) VH: EVQLLESGGGLVQPGGSLRLSCAASGFTFSSYSMNWVRQAPGKGLEWVSGINYNGGYKGYADSVKGRFTISRDNSKNTLYLQMNSLRAEDTAVYYCARGANWHDTHLDYWGQGTLVTVSS VL: DIQMTQSPSSLSASVGDRVTITCRASQSILTYVNWYQQKPGKAPKLLIYAATSRHSGVPSRFSGSGSGTDFTLTISSLQPEDFATYYCQQSYDTPLTFGGGTKVEIK :: 2.78
368_C04 (antibody, V domains shown, Group II) VH: EVQLLESGGGLVQPGGSLRLSCAASGFTFDSYGMHWVRQAPGKGLEWVSNINYNGGYTSYADSVKGRFTISRDNSKNTLYLQMNSLRAEDTAVYYCARAATWHDTHLDYWGQGTLVTVSS VL: DIQMTQSPSSLSASVGDRVTITCRASQSILSYVNWYQQKPGKAPKLLIYAATSRASGVPSRFSGSGSGTDFTLTISSLQPEDFATYYCQQSYSTPLTFGGGTKVEIK :: 2.48
369_H03 (antibody, V domains shown, Group I) VH: EVQLLESGGGLVQPGGSLRLSCAASGFTFSSYSMHWVRQAPGKGLEWVASINYNSGYKSYADSVKGRFTISRDNSKNTLYLQMNSLRAEDTAVYYCARAANWHDTALDYWGQGTLVTVSS VL: DIQMTQSPSSLSASVGDRVTITCRASQSIVSYLNWYQQKPGKAPKLLIYATTSRASGVPSRFSGSGSGTDFTLTISSLQPEDFATYYCQQSYDTPLTFGGGTKVEIK :: 2.83
366_B05 (antibody, V domains shown, Group III) VH: EVQLLESGGGLVQPGGSLRLSCAASGFTFSDYSMNWVRQAPGKGLEWVSGINYNSGYKSYADSVKGRFTISRDNSKNTLYLQMNSLRAEDTAVYYCARGANWHDTALDYWGQGTLVTVSS VL: DIQMTQSPSSLSASVGDRVTITCRASQSISSYLNWYQQKPGKAPKLVIYAVTSRASGVPSRFSGSGSGTDFTLTISSLQPEDFATYYCQQSYELPLTFGGGTKVEIK :: 2.38

Now for another entry.
Task: Give optical density for 371_B02 (antibody, V domains shown, Group II) VH: EVQLLESGGGLVQPGGSLRLSCAASGFTFDSYGMNWVRQAPGKGLEWVSNINYNGGYTSYADSVKGRFTISRDNSKNTLYLQMNSLRAEDTAVYYCARAATWHDTHLDYWGQGTLVTVSS VL: DIQMTQSPSSLSASVGDRVTITCRASQSILTYVNWYQQKPGKAPKLVIYAATSLASGVPSRFSGSGSGTDFTLTISSLQPEDFATYYCQQSYNNPLTFGGGTKVEIK
Result: 2
